The reported measurements were obtained from patent US8093279B2.

testedSystem: steroid sulphatase (STS) (Homo sapiens)
Sequence (P08842 22-583): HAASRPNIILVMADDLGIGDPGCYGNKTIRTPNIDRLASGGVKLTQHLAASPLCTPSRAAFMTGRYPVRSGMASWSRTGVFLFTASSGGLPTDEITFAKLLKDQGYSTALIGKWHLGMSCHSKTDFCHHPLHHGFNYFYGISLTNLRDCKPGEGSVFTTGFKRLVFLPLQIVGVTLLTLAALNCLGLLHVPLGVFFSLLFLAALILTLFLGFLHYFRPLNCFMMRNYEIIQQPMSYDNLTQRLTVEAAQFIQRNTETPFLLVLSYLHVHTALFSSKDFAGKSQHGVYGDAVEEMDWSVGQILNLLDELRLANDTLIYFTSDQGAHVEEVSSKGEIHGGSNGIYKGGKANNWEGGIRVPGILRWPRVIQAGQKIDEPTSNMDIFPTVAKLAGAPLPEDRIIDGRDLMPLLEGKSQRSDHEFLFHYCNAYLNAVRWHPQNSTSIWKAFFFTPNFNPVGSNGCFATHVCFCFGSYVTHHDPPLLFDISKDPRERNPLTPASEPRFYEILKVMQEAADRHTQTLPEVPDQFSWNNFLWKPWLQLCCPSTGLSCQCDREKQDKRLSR
assayRemarks: Inhibition of steroid sulphatase activity in intact JEG3 cells (Protocol 1)
assayContext: JEG3 cells
Experimental: Inhibition of Steroid Sulphatase Activity in JEG3 cells Steroid sulphatase activity is measured in vitro using intact JEG3 choriocarcinoma cells. This cell line may be used to study the control of human breast cancer cell growth. Cells are maintained in Minimal Essential Medium (MEM) (Flow Laboratories, Irvine, Scotland) containing 20 mM HEPES, 5% foetal bovine serum, 2 mM glutamine, non-essential amino acids and 0.075% sodium bicarbonate. […]
Field: IC50. Provide a value for each of the molecules that follow.

Let me know recorded IC50 for N#Cc1ccc(-c2ccc(OS(N)(=O)=O)c(Cl)c2)cc1Cn1cncn1 , thanks.
< 1000 nM

Please give measured IC50 of the following entry: N#Cc1ccc(Cn2cncn2)cc1-c1ccc(OS(N)(=O)=O)c(Cl)c1
< 1000 nM

Please report the measured IC50 for NS(=O)(=O)Oc1ccc(-c2cccc(Cn3cncn3)c2)cc1Cl
< 1000 nM

Fill in reported IC50 for this entry: N#Cc1cc(Cn2cncn2)cc(-c2ccc(OS(N)(=O)=O)c(Cl)c2)c1
< 10000 nM

Provide one value: measured IC50 of NS(=O)(=O)Oc1ccc(-c2ccc(Cn3cncn3)cc2)cc1
< 10000 nM

Report IC50 for N#Cc1ccc(-c2ccc(OS(N)(=O)=O)cc2)cc1Cn1cncn1
< 1000 nM

Give a short answer stating reported IC50 for N#Cc1ccc(Cn2cncn2)cc1-c1ccc(OS(N)(=O)=O)cc1 .
< 1000 nM

Look up and state reported IC50 for NS(=O)(=O)Oc1ccc(SCc2ccc(Cn3cncn3)cc2)cc1Cl
< 1000 nM

Quickly give me recorded IC50 for N#Cc1cc(Cn2cncn2)ccc1-c1ccc(OS(N)(=O)=O)cc1
< 1000 nM

###

I'd be grateful if you could share measured melting point for these entries.

Give the reported melting point for this compound. CC(C)(C#N)c1cc(Cn2cncn2)cc(-c2ccc(OS(N)(=O)=O)c(Cl)c2)c1
71 to 74 °C

Given the compound N#Cc1ccc(-c2cccc(OS(N)(=O)=O)c2)cc1Cn1cncn1 , write its reported melting point.
137 to 138 °C

Answer with reported melting point of N#Cc1ccc(-c2ccc(OS(N)(=O)=O)cc2)cc1Cn1cncn1
179 to 180 °C

Determine from records and report melting point for N#Cc1ccc(Cn2cncn2)cc1-c1ccc(Cl)c(OS(N)(=O)=O)c1
148 to 150 °C

Provide one value: measured melting point of N#Cc1cc(Cn2cncn2)ccc1-c1ccc(O)cc1
168 to 171 °C

Hello, please tell me recorded melting point for this one: N#Cc1cc(Cn2cncn2)cc(-c2ccc(O)cc2)c1
186 to 187 °C

State, in one line, measured melting point of N#Cc1cc(Cn2cncn2)cc(-c2ccc(OS(N)(=O)=O)cc2)c1
166 to 167 °C

Specify reported melting point for the compound shown: N#Cc1cc(Cn2cncn2)ccc1-c1ccc(O)c(Cl)c1
195 to 197 °C

Give the measured melting point for N#Cc1ccc(Cn2cncn2)c(-c2ccc(O)c(Cl)c2)c1
243 to 245 °C

Fill in melting point for record N#Cc1ccc(Cn2cncn2)cc1-c1ccc(Cl)c(O)c1
228 to 229 °C

Specify measured melting point for CC(C)(C#N)c1cc(Cn2cncn2)cc(-c2ccc(OS(N)(=O)=O)cc2)c1 .
74 to 76 °C

Using the record for N#Cc1cc(Cn2cncn2)cc(-c2ccc(O)c(Cl)c2)c1 , state its measured melting point.
208 to 209 °C

Provide measured melting point value, entry: N#Cc1ccc(-c2cc(C#N)cc(Cn3cncn3)c2)cc1
154 to 155 °C

Indicate its recorded melting point; the compound in question is CN(C)S(=O)(=O)Oc1ccc(-c2cc(Cn3cncn3)ccc2C#N)cc1Cl
119 to 120 °C

Answer with the recorded melting point for the compound listed here: N#Cc1cc(Cn2cncn2)cc(-c2ccc(F)cc2)c1
134 to 135 °C

Return reported melting point. Input compound: N#Cc1cc(Cn2cncn2)cc(-c2ccccc2)c1
109 to 110 °C

Give the measured melting point for N#Cc1ccc(Cn2cncn2)c(-c2ccc(OS(N)(=O)=O)c(Cl)c2)c1
139 to 142 °C

Please look at this compound and report its melting point: N#Cc1ccc(-c2ccc(OS(N)(=O)=O)c(Cl)c2)cc1Cn1cncn1
155 to 158 °C
